B1: DCAF4 (parent)
chain: TTKCVRQYEGHVNEYAYLPLHVHE

Variants of: B1
Assay: protein stability index of a GFP-peptide fusion (GPS, HEK-293T) (PSI 1-6); higher = more stable;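 also: lentivirally expressed fusions sorted by FACS into six bins by GFP to DsRed ratio, PSI derived from sequencing read proportions per bin multiplied by bin number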
Settings: c terminus: a fixed tail appended
Assign protein stability index to each entry below.

Here are 4 variants together with their reported answers.
N13C :: 2.35
R6V :: 2.1
E9G :: 2.55
Q7E :: 2.96

Give protein stability index for all variants that follow.
1. V5I
2. H23D
3. L18N
4. V12N
5. P19Y

1. 2.17
2. 3.45
3. 3.15
4. 2.98
5. 2.67

Give protein stability index for all variants that follow.
1. N13T
2. E24S
3. Y8I
4. R6M
5. L20I
6. V22S
7. T2H

1: 2.64; 2: 2.07; 3: 2.82; 4: 2.38; 5: 2.74; 6: 3.24; 7: 2.32

Give protein stability index for all variants that follow.
1. Q7T
2. N13I
3. H23C
4. A16T
5. H23P

[2.97, 1.66, 2.52, 2.82, 3.32]

The values you see were collected from the supplement of paper PMC10567573.
